assay.remarks: melting temperature; melt of duplexes
condition.info: sodium 0.0675 M; strand 1 µM
So I've got a bunch of substances here, and I need their Tm values.
The answer is to be given in °C; state only the numeric part.

query: Provide measured Tm value, entry: CGACGTGCTAAATGTGCTG+CAGCACATTGTGCACGTCG ((((((((..(((((((((+)))))))))..))))))))
result: 50.7

query: Provide measured Tm value, entry: CGACGTGCCAGATGTGCTG+CAGCACATGCAGCACGTCG ((((((((...((((((((+))))))))...))))))))
result: 51.2

query: Provide measured Tm value, entry: CGACGTGCTCGATGTGCTG+CAGCACATATGGCACGTCG ((((((((...((((((((+))))))))...))))))))
result: 50.5
